systemUnderTest: T1, HLA-A*02:01 (human)
T1 construct: MHC class I monomer of the UV-ligand exchange assay; also called peptide-receptive MHC molecules; MHC class I
assayProcedure: UV peptide-exchange ELISA
Source text: Candidate peptides for T cell based therapies according to the present invention were further tested for their MHC binding capacity (affinity). The individual peptide-MHC complexes were produced by UV-ligand exchange, where a UV-sensitive peptide is cleaved upon UV-irradiation, and exchanged with the peptide of interest as analyzed. Only peptide candidates that can effectively bind and stabilize the peptide-receptive MHC molecules prevent dissociation of the MHC complexes. […]
experimentalReadout: peptide exchange yield

// worked examples, peptide exchange yield included
>>> df
        binder     experimentalreadout  endpointvalue
0   SLVEAQGWLV  peptide exchange yield      50 to 75%
1   YLLSGDISEA  peptide exchange yield      50 to 75%
2    GLWGTVVNI  peptide exchange yield      50 to 75%
3  LLLAEAELLTL  peptide exchange yield      20 to 50%
4  FLLGPEALSFA  peptide exchange yield          ≥ 75%

Would you mind giving peptide exchange yield for every binder in the list below?
1. RLQELTEKL
2. AVLLVLPLV
3. TLENGVPCV
4. GLDDMKANL
5. MLLEHGITLV
6. ALPEVSVEA
7. VVAEELENV

50 to 75%
50 to 75%
50 to 75%
20 to 50%
≥ 75%
50 to 75%
20 to 50%
